# system: T1, human LAG-3-his (human, UniProt P18627 23-422)
# T1 construct: range 23-422; also called hLAG-3-his; hLAG-3
# T1 sequence: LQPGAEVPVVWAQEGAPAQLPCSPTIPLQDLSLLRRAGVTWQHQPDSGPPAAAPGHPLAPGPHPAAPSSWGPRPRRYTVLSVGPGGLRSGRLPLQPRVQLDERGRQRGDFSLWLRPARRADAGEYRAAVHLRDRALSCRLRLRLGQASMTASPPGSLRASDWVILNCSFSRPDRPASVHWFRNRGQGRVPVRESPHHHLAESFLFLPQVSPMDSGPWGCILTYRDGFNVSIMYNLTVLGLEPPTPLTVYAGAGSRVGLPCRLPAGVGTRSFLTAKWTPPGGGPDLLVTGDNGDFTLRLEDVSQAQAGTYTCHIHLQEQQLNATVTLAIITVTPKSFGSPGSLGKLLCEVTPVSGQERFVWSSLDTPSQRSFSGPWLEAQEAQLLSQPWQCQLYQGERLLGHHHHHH
# experiment_summary: ELISA on hLAG-3
observable: pEC50
Quick note: pEC50 values are minus log10 of concentrations in mol/L.

What does the record list as pEC50 for Ab2314 (antibody, human IgG4 S228P, kappa, V domains shown, human kappa / hIgG4) VH: QVQLVQSGAEVKKPGASVKVSCKASGYTFTDYEMHWVKQAPGQGLEWIGGIDPETEGIAYNQKFRGRATLTADKSTSTAYMELRSLRSDDTAVYYCTNSNYYGGREAWFAYWGQGTLVTVSS VL: DIQMTQSPSSLSASVGDRVTITCRASQDIGSSLNWLQQKPGKAIKRLIYATSSLDSGVPSRFSGSRSGSDYTLTISSLQPEDFATYYCLQYVTSPLTFGGGTKVEIKR ?
9.63

What does the record list as pEC50 for chimeric antibody mab23c (antibody, human IgG4 S228P, kappa, V domains shown, hIgG4) VH: QVQLQQSGAELVRPGASVTLSCKASGYTFTDYEMHWVKQTPVHGLEWIGGIDPETEGIAYNQKFRGKAILTADKSSITAYMELRSLTSEDSAVYYCTNSNYYGGREAWFAYWGQGTLVTVSG VL: DIQMIQSPSSLSASLGERVSLTCRASQDIGSSLNWLQQEPDGTIKRLIYATSSLDSGVPKRFSGSRSGSDYSLTISSLESEDFVDYYCLQYVTSPLTFGAGTKLELKR ?
9.78

What does the record list as pEC50 for Ab2313 (antibody, human IgG4 S228P, kappa, V domains shown, human kappa / hIgG4) VH: QVQLVQSGAEVKKPGASVKVSCKASGYTFTDYEMHWVKQAPGQGLEWIGGIDPETEGIAYNQKFRGRATLTADKSTSTAYMELRSLRSDDTAVYYCTNSNYYGGREAWFAYWGQGTLVTVSS VL: DIQMIQSPSSLSASVGDRVTITCRASQDIGSSLNWLQQKPGGAIKRLIYATSSLDSGVPSRFSGSRSGSDYSLTISSLQPEDFATYYCLQYVTSPLTFGGGTKVEIKR ?
9.66

What does the record list as pEC50 for Ab2322 (antibody, human IgG4 S228P, kappa, V domains shown, human kappa / hIgG4) VH: QVQLVQSGAEVKKPGASVKVSCKASGYTFTDYEMHWVKQAPGQGLEWIGGIDPETEGIAYNQKFRGRATMTTDTSTSTAYMELRSLRSDDTAVYYCTNSNYYGGREAWFAYWGQGTLVTVSS VL: DIQMTQSPSSLSASVGDRVTITCRASQDIGSSLNWYQQKPGKAPKRLIYATSSLDSGVPSRFSGSRSGSDFTLTISSLQPEDFATYYCLQYVTSPLTFGGGTKVEIKR ?
9.88

What does the record list as pEC50 for humanized anti-human LAG-3 antibody Ab2317 (antibody, human IgG4 S228P, kappa, V domains shown, LG2317 / LG2343, human kappa / hIgG4) VH: QVQLVQSGAEVKKPGASVKVSCKASGYTFTDYEMHWVKQAPGQGLEWIGGIDPETEGIAYNQKFRGRATLTADKSTSTAYMELRSLRSDDTAVYYCTNSNYYGGREAWFAYWGQGTLVTVSS VL: DIQMTQSPSSLSASVGDRVTITCRASQDIGSSLNWYQQKPGKAPKRLIYATSSLDSGVPSRFSGSRSGSDFTLTISSLQPEDFATYYCLQYVTSPLTFGGGTKVEIKR ?
9.92
